Origin of values: PubChem BioAssay AID1236

System: calpain II (m-calpain), Sus scrofa
test: inhibitors of pig calpain II, primary screen, biochemical, fluorogenic peptide substrate, 1536-well (AID 1236)
reported.conditions: purified calpain II, 30 min, at 16 µM, stronger effect = higher value
In all, about 220,000 compounds went through this assay and about 800 (0.36%) were called active. The full list was thinned out, with actives kept by preference.
I would appreciate it if you labelled entries Condition met when inhibition is -10% or higher, otherwise Condition not met.

{"structure.smiles": "O=C(NCCc1csc(-c2ccccc2)n1)c1ccccc1F", "class.label": "Condition met"}
{"structure.smiles": "S=C(NCCc1ccccc1)Nc1ccccc1", "class.label": "Condition met"}
{"structure.smiles": "COc1ccccc1NC(=O)c1c(Br)cnn1C", "class.label": "Condition not met"}
{"structure.smiles": "Nc1ccccc1Sc1ccc(C(F)(F)F)cc1[N+](=O)[O-]", "class.label": "Condition met"}
{"structure.smiles": "O=C1C=CC(=O)N1c1ccc(N2CCCCC2)cc1", "class.label": "Condition met"}
{"structure.smiles": "CC(C)Cc1nnc(NC(=O)CCC(=O)Nc2ccc3cn[nH]c3c2)s1", "class.label": "Condition not met"}
